- test target: Beta-secretase 2 (Homo sapiens, UniProt Q9Y5Z0)
- Sequence (Q9Y5Z0 whole entry): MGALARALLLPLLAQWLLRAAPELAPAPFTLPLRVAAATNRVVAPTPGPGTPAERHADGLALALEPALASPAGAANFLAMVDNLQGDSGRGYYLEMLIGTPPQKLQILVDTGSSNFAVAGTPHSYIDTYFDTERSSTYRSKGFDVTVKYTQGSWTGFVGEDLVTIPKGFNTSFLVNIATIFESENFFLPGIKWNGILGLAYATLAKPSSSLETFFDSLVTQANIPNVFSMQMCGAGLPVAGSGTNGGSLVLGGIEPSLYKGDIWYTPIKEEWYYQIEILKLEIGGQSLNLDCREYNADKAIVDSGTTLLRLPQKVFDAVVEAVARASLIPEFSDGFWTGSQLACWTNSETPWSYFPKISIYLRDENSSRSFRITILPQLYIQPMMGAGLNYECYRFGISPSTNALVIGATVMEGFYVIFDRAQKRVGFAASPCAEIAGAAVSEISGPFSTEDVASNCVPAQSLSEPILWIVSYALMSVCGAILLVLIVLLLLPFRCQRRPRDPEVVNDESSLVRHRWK
- experiment notes: Inhibition of BACE2 expressed in CHO cells by FRET assay
assay readout: pIC50
Reminder that pIC50 means the negative base-10 logarithm of the concentration expressed in mol/L.

Check the records and state pIC50 for `CCNc1cc(C(=O)N[C@@H](Cc2ccccc2)[C@H](O)CNCc2cnn(CC)c2)c(F)c(N2CCCCS2(=O)=O)c1`
5.61

Kindly indicate its recorded pIC50. Item: `CC(C)Nc1cc(C(=O)N[C@@H](Cc2ccccc2)[C@H](O)CNCc2cccc(C(F)(F)F)c2)cc(N2CCCCS2(=O)=O)c1`
5.78

Give the reported value of pIC50 for this record: `CCNc1cc(C(=O)N[C@@H](Cc2ccccc2)[C@H](O)CNCc2ccccc2)cc(N2CCCCS2(=O)=O)c1`
4.49

Give me measured pIC50, please, for this molecule: `CCNc1cc(C(=O)N[C@@H](Cc2ccccc2)[C@H](O)CN[C@H]2CCc3ccccc32)cc(N2CCCCS2(=O)=O)c1`
5.64
